Task for the reader: assign each of the following molecules its reported remaining activity at 1 µM.
- targetUnderTest: PRK2 (Homo sapiens, UniProt Q16513)
- Sequence (Q16513 whole entry): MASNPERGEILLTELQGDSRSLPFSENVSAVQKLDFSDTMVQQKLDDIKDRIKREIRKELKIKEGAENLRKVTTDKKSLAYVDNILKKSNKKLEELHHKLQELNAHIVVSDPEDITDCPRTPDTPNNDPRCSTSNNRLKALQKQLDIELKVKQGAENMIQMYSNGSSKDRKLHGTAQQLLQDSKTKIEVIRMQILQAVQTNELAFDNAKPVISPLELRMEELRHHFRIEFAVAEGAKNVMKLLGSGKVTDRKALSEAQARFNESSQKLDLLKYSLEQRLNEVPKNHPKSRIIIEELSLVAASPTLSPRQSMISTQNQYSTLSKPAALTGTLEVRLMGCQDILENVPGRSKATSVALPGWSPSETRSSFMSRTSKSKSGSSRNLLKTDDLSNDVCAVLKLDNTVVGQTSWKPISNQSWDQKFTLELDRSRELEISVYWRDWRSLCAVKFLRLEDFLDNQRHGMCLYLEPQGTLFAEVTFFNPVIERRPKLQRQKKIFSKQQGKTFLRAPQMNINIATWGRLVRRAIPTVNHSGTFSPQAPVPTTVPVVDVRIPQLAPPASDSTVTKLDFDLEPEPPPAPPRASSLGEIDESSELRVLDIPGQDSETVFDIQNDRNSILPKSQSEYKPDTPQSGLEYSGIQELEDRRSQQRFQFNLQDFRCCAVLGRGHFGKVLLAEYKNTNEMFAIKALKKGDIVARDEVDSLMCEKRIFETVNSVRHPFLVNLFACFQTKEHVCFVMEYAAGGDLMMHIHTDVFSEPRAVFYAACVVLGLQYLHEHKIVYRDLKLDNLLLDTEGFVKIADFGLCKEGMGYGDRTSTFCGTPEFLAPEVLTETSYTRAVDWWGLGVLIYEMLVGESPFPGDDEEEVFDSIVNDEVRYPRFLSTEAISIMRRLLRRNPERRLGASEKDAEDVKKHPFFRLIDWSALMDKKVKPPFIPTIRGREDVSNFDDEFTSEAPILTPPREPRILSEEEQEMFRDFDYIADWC
- methodDescription: Kinase profiling (radiometric filter-binding)
- Assay type: biochemical
- measurementConditions: PRK2, 1 µM inhibitor; read-out: Residual activity, %
Square brackets hold non-standard residues; d marks the D form. Peptide text beside a SMILES is read from it. * marks the point of attachment. X3 = O=C(CCCCCNCc1nc2c(sc3cc(Br)cnc32)c(=O)[nH]1)*
# unit: % | format: bare number

Measured on PRK2 (Homo sapiens, UniProt Q16513), "N=C(N)NCCC[C@@H](NC(=O)CNC(=O)[C@@H](CCCNC(=N)N)NC(=O)[C@@H](CCCNC(=N)N)NC(=O)CCCCCCCNCc1nc2c(sc3ccc(Br)cc32)c(=O)[nH]1)C(=O)N[C@H](CCCCN)C(N)=O" has a documented remaining activity at 1 µM of 94

Measured on PRK2 (Homo sapiens, UniProt Q16513), N=C(N)NCCC[C@@H](NC(=O)CCCCCNCc1nc2c(sc3cc(Br)cnc32)c(=O)[nH]1)C(=O)N[C@H](CCCNC(=N)N)C(=O)N[C@H](CCCNC(=N)N)C(=O)N[C@H](CCCNC(=N)N)C(=O)N[C@H](CCCNC(=N)N)C(=O)N[C@H](CCCNC(=N)N)C(=O)N[C@H](CCCCN)C(N)=O [ARC-3126, BPTP-Ahx-(D-Arg)6-D-Lys-NH2] (X3-[dR][dR][dR][dR][dR][dR][dK]-NH2) has a documented remaining activity at 1 µM of 58

Measured on PRK2 (Homo sapiens, UniProt Q16513), "N=C(N)NCCC[C@@H](NC(=O)CCCCCNC(=O)Cn1cnc2c(I)c(I)c(I)c(I)c21)C(=O)N[C@H](CCCNC(=N)N)C(=O)N[C@H](CCCNC(=N)N)C(=O)N[C@H](CCCNC(=N)N)C(=O)N[C@H](CCCNC(=N)N)C(=O)N[C@H](CCCNC(=N)N)C(=O)N[C@H](CCCCN)C(N)=O" has a documented remaining activity at 1 µM of 16

Measured on PRK2 (Homo sapiens, UniProt Q16513), "N=C(N)NCCC[C@@H](NC(=O)CNC(=O)[C@@H](CCCNC(=N)N)NC(=O)[C@@H](CCCNC(=N)N)NC(=O)Cn1cc(CNCc2nc3c(sc4ccc(Br)cc43)c(=O)[nH]2)nn1)C(=O)N[C@H](CCCCN)C(N)=O" has a documented remaining activity at 1 µM of 67

Measured on PRK2 (Homo sapiens, UniProt Q16513), "N=C(N)NCCC[C@@H](NC(=O)CNC(=O)[C@@H](CCCNC(=N)N)NC(=O)[C@@H](CCCNC(=N)N)NC(=O)CCCCCCCNCc1nc2c(sc3cc(Br)cnc32)c(=O)[nH]1)C(=O)N[C@H](CCCCN)C(N)=O" has a documented remaining activity at 1 µM of 92

###

- targetUnderTest: JAK2 (Homo sapiens, UniProt O60674)
- Sequence (O60674 whole entry): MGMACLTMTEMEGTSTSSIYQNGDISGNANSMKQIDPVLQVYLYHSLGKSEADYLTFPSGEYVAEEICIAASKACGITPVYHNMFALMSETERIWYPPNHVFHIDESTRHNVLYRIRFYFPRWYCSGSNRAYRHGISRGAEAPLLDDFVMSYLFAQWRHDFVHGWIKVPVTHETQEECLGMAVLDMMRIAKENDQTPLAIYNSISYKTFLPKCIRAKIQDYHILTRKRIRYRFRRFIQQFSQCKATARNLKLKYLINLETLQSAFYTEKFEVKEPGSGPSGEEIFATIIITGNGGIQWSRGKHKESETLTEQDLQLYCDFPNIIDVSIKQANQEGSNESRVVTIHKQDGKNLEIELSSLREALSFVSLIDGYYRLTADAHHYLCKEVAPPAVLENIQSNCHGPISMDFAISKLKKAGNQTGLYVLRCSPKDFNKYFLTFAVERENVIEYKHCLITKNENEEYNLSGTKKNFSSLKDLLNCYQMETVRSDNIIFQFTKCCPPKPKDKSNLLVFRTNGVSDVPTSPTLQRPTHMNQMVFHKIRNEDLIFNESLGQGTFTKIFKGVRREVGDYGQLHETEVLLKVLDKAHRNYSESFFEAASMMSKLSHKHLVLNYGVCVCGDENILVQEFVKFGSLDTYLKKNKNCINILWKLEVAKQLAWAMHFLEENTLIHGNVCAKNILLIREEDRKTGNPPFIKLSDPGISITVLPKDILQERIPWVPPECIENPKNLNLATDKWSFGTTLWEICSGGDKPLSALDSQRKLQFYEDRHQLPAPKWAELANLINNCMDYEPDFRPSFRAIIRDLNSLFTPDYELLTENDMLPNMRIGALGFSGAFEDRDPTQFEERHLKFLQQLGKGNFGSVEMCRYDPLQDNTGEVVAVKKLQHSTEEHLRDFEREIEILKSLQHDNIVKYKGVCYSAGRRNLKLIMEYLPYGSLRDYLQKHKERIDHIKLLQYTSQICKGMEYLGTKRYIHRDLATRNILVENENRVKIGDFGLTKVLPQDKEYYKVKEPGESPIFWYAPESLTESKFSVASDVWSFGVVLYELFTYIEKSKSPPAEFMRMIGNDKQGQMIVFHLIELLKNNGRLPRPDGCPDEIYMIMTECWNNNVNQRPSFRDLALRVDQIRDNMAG
- methodDescription: Kinase profiling (radiometric filter-binding)
- Type: biochemical
- measurementConditions: JAK2, 1 µM inhibitor; read-out: Residual activity, %
Square brackets hold non-standard residues; d marks the D form. Peptide text beside a SMILES is read from it. * marks the point of attachment. X3 = O=C(CCCCCNCc1nc2c(sc3cc(Br)cnc32)c(=O)[nH]1)*
Task for the reader: assign each of the following compounds its reported remaining activity at 1 µM.
# unit: % | format: bare number

# remaining activity at 1 µM of N=C(N)NCCC[C@@H](NC(=O)CCCCCNCc1nc2c(sc3cc(Br)cnc32)c(=O)[nH]1)C(=O)N[C@H](CCCNC(=N)N)C(=O)N[C@H](CCCNC(=N)N)C(=O)N[C@H](CCCNC(=N)N)C(=O)N[C@H](CCCNC(=N)N)C(=O)N[C@H](CCCNC(=N)N)C(=O)N[C@H](CCCCN)C(N)=O [ARC-3126, BPTP-Ahx-(D-Arg)6-D-Lys-NH2] (X3-[dR][dR][dR][dR][dR][dR][dK]-NH2) = 116

# remaining activity at 1 µM of N=C(N)NCCC[C@@H](NC(=O)CCCCCNC(=O)Cn1cnc2c(I)c(I)c(I)c(I)c21)C(=O)N[C@H](CCCNC(=N)N)C(=O)N[C@H](CCCNC(=N)N)C(=O)N[C@H](CCCNC(=N)N)C(=O)N[C@H](CCCNC(=N)N)C(=O)N[C@H](CCCNC(=N)N)C(=O)N[C@H](CCCCN)C(N)=O [ARC-3125, TIBI-CH2-C(=O)-Ahx-(D-Arg)6-D-Lys-NH2] = 115

# remaining activity at 1 µM of N=C(N)NCCC[C@@H](NC(=O)CNC(=O)[C@@H](CCCNC(=N)N)NC(=O)[C@@H](CCCNC(=N)N)NC(=O)CCCCCCCNCc1nc2c(sc3cc(Br)cnc32)c(=O)[nH]1)C(=O)N[C@H](CCCCN)C(N)=O [Compound 1, BPTP-Aoc-(D-Arg)2-Gly-D-Arg-D-Lys-NH2] = 93

# remaining activity at 1 µM of N=C(N)NCCC[C@@H](NC(=O)CNC(=O)[C@@H](CCCNC(=N)N)NC(=O)[C@@H](CCCNC(=N)N)NC(=O)CCCCCCCNCc1nc2c(sc3ccc(Br)cc32)c(=O)[nH]1)C(=O)N[C@H](CCCCN)C(N)=O [Compound 2, BBTP-Aoc-(D-Arg)2-Gly-D-Arg-D-Lys-NH2] = 82

# remaining activity at 1 µM of N=C(N)NCCC[C@@H](NC(=O)CNC(=O)[C@@H](CCCNC(=N)N)NC(=O)[C@@H](CCCNC(=N)N)NC(=O)Cn1cc(CNCc2nc3c(sc4ccc(Br)cc43)c(=O)[nH]2)nn1)C(=O)N[C@H](CCCCN)C(N)=O [Compound 3, BBTP-Amt-(D-Arg)2-Gly-D-Arg-D-Lys-NH2] = 72

Reference source for all entries: paper PMC8307404
